The measured values listed here are drawn from paper PMC8126888.

assay: in vitro; conditions: human, HFF-1 cells
The following compounds are listed with their measured CC50 values.
Quick note: give the figure in µM, leave out the unit.

The cases that follow already have their CC50 on record.
> print(dat)
                                   compound  measurement.name  recorded.result
1  COc1ccc(C(=O)N2CCOCC2)cc1S(=O)(=O)N(Cc1ccc(C(F)(F)F)nc1)C(C)c1ccc(F)cc1 (centres unmarked)              CC50             49.4
2  COc1ccc(C#N)cc1S(=O)(=O)N(Cc1ccc(F)cc1)C1CCOCC1              CC50             44.1
3  COc1ccc(C(=O)N(C)CCO)cc1S(=O)(=O)N(Cc1ccc(F)cc1)Cc1ccc(F)cc1              CC50             60.2
4  COc1ccc(OC)c(S(=O)(=O)N(Cc2ccc(F)cc2)Cc2ccc(C#N)cc2)c1              CC50             51.9
5  CS(=O)(=O)c1ccccc1S(=O)(=O)N(Cc1ccccc1)Cc1ccccc1              CC50             38.1

Here is another compound to look at.
Sure, the documented CC50 for `COc1ccc(C(=O)N2CCOCC2)cc1S(=O)(=O)N(Cc1ccc(F)cc1)Cc1ccccc1Cl` is 10.5

---

assay: in vitro; settings: human, HFF-1 cells
measurement-name: CC50 (µM)
Supply the numeric figure in µM, leaving out any unit text.

> print(dat)
                               input.smiles  measurement.name  units.symbol  recorded.result
1  COc1ccc(N2CCOCC2)cc1S(=O)(=O)N(Cc1ccc(F)cc1)Cc1ccc(F)cc1              CC50            µM             15.2
2  COCCN(Cc1ccccc1)S(=O)(=O)c1ccccc1OC(F)(F)F              CC50            µM             45.1
3  O=S(=O)(c1cccnc1N1CCOCC1)N(Cc1ccc(F)cc1)Cc1ccc(F)cc1              CC50            µM             29.4
4  COc1ccc(S(C)(=O)=O)cc1S(=O)(=O)N(Cc1ccccc1)CC(C)(C)C              CC50            µM             57.2

Lookup result for `COc1ccc(C(=O)N2CCOCC2)cc1S(=O)(=O)N(Cc1ccc(F)cc1)Cc1ccc(F)cc1` ; measured CC50: 46.9

---

assay: in vitro; conditions: human, HFF-1 cells
CC50 less than 30 µM is true; CC50 greater than or equal to 30 µM is false.

// below: answered compounds
> print(dat)
                                   compound    cat
1  COc1ccc(OC)c(S(=O)(=O)N(Cc2ccc(F)cc2)c2ccc(F)cn2)c1   true
2  [2H]C([2H])([2H])Oc1ncccc1S(=O)(=O)N(Cc1ccc(F)cc1)Cc1ccc(F)cc1  false
3  COc1ccc(OC)c(S(=O)(=O)N(Cc2ccc(F)cc2)Cc2ncccn2)c1   true
4  COc1ccc(S(C)(=O)=O)cc1S(=O)(=O)N(Cc1ccc(F)cc1)Cc1ccc(F)cc1   true

Ask: Report whether reported CC50 is lower than 30 µM (strictly) for `O=c1[nH]cccc1S(=O)(=O)N(Cc1ccc(F)cc1)Cc1ccc(F)cc1`
Result: true

Ask: Strictly below 30 µM in CC50? COc1ccc(Cl)cc1S(=O)(=O)N(Cc1ccccc1)C(Cc1ccccc1)C(N)=O (stereo not shown)
Result: false

Ask: CC50 strictly < 30 µM for this compound? `COc1ccc(OC)c(S(=O)(=O)N2CCC(c3ccccc3)CC2)c1`
Result: true

Ask: A record lists `CNc1ncccc1S(=O)(=O)N(Cc1ccc(F)cc1)Cc1ccc(F)cc1` . Is its CC50 below 30 µM?
Result: false

Ask: Determine whether this compound shows CC50 lower than 30 µM (ties excluded): `Cn1cccc(S(=O)(=O)N(Cc2ccc(F)cc2)Cc2ccc(F)cc2)c1=O`
Result: false

Ask: is_below(CC50, 30 µM) for `COc1ccc(OC)c(S(=O)(=O)N(Cc2ccc(F)cc2)Cc2oc(C)nc2C)c1` ?
Result: true
